The measurements presented in this section are drawn from ChEMBL document CHEMBL1961873.

# inhibition per record follows
Target: Insulin-like growth factor 1 receptor (Homo sapiens) (UniProt P08069);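 also: each value is a mean percent inhibition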
Sequence (P08069 31-736 limits assumed): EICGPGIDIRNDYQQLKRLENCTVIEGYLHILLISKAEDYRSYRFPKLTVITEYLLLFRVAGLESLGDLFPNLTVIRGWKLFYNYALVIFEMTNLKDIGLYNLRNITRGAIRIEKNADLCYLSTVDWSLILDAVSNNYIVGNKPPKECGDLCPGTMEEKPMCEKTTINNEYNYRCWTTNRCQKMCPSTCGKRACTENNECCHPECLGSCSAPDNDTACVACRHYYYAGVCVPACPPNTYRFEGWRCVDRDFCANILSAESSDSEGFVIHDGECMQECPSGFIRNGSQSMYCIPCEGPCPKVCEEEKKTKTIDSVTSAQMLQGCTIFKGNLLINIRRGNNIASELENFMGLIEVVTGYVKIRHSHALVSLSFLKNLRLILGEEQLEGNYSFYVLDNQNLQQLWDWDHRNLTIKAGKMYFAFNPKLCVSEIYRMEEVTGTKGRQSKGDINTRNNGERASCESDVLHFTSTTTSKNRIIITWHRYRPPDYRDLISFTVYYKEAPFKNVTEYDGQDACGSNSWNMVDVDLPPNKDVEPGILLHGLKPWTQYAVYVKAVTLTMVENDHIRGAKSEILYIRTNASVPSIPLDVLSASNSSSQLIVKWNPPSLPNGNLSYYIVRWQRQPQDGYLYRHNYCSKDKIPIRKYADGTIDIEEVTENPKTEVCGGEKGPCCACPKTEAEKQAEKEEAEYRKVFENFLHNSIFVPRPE
Sequence (P08069 741-1367 limits assumed): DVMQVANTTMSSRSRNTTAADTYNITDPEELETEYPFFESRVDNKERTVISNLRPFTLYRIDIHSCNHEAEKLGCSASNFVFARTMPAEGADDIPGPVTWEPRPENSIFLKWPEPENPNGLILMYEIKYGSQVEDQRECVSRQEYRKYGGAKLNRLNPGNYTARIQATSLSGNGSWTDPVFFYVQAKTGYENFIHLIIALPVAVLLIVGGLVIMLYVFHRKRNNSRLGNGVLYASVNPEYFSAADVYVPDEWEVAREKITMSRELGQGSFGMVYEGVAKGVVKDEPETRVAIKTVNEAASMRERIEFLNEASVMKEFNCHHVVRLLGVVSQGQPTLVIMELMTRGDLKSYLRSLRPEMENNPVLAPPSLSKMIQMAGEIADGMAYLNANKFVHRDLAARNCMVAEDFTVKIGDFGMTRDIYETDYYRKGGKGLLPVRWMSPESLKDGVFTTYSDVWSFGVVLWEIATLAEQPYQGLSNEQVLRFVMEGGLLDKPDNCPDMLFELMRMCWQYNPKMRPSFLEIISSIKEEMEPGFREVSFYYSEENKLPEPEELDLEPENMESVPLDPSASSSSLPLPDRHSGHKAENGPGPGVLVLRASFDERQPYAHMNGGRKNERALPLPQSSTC
Conditions: at 1 µM

Compound: Cc1ccc2c(-c3ccnc(Nc4ccc5c(c4)OCCO5)n3)c(-c3ccc(C(F)(F)F)cc3)nn2n1
inhibition: 0.39%

Compound: COC(=O)c1ccc2c(c1)C(=Cc1cc(Br)c(O)c(Br)c1)C(=O)N2
inhibition: 2.72%

Compound: Nc1nccc(C#Cc2cncnc2Nc2ccc(OCc3cccc(F)c3)c(Cl)c2)n1
inhibition: 4.12%

Compound: CN(C)C(=O)O[C@@H]1CN[C@@H](C#Cc2cc3ncnc(Nc4ccc(OCc5cccc(F)c5)c(Cl)c4)c3s2)C1
inhibition: 0%

Compound: N#Cc1cccc(Nc2nccc(-c3cnn4ncccc34)n2)c1
inhibition: 38.2%

Compound: CCOc1nccc2c1nc(-c1nonc1N)n2CC
inhibition: 7.09%

Compound: CN(C)CCCn1c(-c2nonc2N)nc2cnccc21
inhibition: 9.74%

Compound: CS(=O)(=O)CCNCc1nc(-c2ccc3ncnc(Nc4ccc(OCc5cccc(C(F)(F)F)c5)cc4)c3c2)cs1
inhibition: 3.36%

Compound: COc1cccc(-n2nc(C)c3c(N/N=C(\C)c4ccncc4)ncnc32)c1
inhibition: 0.73%

Compound: CN(C)c1cc2c(Nc3ccc4c(cnn4Cc4ccccc4)c3)ncnc2cn1
inhibition: 2.94%

Compound: COc1cc(/C=N/Nc2ncnc3c2cnn3C(C)C)ccc1O
inhibition: 7.79%

Compound: CCn1c(-c2nonc2N)nc2c(C#CC(C)(C)O)nc(OCCNC)cc21
inhibition: 3.53%

Compound: CCCN1CCCC(c2ccc(Nc3nc(Nc4cc(F)ccc4C(N)=O)c4cc[nH]c4n3)c(OC)c2)C1 (stereo not given)
inhibition: 94.8%

Compound: Nc1ccc(C#Cc2cncnc2Nc2ccc(OCc3cccc(F)c3)c(Cl)c2)cc1
inhibition: -0.29%

Compound: c1ccc(Nc2ncc(-c3ccccc3)o2)cc1
inhibition: 5.2%

Compound: Nc1nccc(-c2c(-c3ccc(F)cc3)nn3cc(C(F)(F)F)ccc23)n1
inhibition: 1.35%

Compound: CCS(=O)(=O)c1ccc(OC)c(Nc2ncc(-c3cccc(OC)c3)o2)c1
inhibition: 4.95%

Compound: N#Cc1c(NC(=O)c2ccccc2F)sc2c1CCCC2
inhibition: 0.01%

Compound: CS(=O)(=O)Nc1cccc(-c2ccc3c(NC(=O)C4CC4)n[nH]c3c2)c1
inhibition: -1.63%

Compound: COc1cc2ncnc(Nc3ccc(C)c(O)c3)c2cc1OC
inhibition: 11%

Compound: C[C@@H](Oc1cc(-n2cnc3ccc(OC[C@@H](O)CO)cc32)sc1C(N)=O)c1ccccc1Cl
inhibition: -0.34%

Compound: COc1cccc(-n2ncc3c(N/N=C/c4ccc(C)cc4)ncnc32)c1
inhibition: 22.9%

Compound: NS(=O)(=O)c1ccc(N/N=C2\C(=O)Nc3ccc(Cl)cc32)cc1
inhibition: 4.64%

Compound: NS(=O)(=O)c1ccc(Nc2cc(-c3cccc(O)c3)n[nH]2)cc1
inhibition: 5.23%

Compound: O=C(Nc1ccc(Oc2ccc3[nH]c(NC(=O)c4ccco4)nc3c2)cc1)Nc1cc(C(F)(F)F)ccc1F
inhibition: -5.27%

Compound: Cc1ccc(C(=O)NC2CC2)cc1-c1ccc2[nH]ncc2c1
inhibition: -5.48%

Compound: [O-][S+]1CCN(Cc2ccc(-c3ccc4ncnc(Nc5ccc(OCc6ccccc6)c(Cl)c5)c4c3)o2)CC1
inhibition: 10.7%

Compound: O=C1Nc2ccccc2/C1=C/Nc1ccc2[nH]c(=O)[nH]c2c1
inhibition: 24.8%

Compound: OCc1ccc(-c2nc(-c3ccccn3)c(-c3ccc4c(c3)OCO4)[nH]2)cc1
inhibition: 4.7%

Compound: COc1cc2ncn(-c3cc(OCc4ccccc4S(C)(=O)=O)c(C#N)s3)c2cc1OC
inhibition: 5.83%

Compound: Cc1ccc(Nc2ccnc(Nc3cccc(C(N)=O)c3)n2)cc1O
inhibition: 17.2%

Compound: FC(F)(F)c1ccc(-c2nn3ncccc3c2-c2ccnc(Nc3ccc4c(c3)OCCO4)n2)cc1
inhibition: -2.92%

Compound: NS(=O)(=O)c1cccc(Nc2cc(-c3ccc(F)cc3)n[nH]2)c1
inhibition: 1.22%

Compound: Cc1ccc2c(c1)/C(=N/Nc1ccc(S(N)(=O)=O)cc1)C(=O)N2
inhibition: -2.24%

Compound: NS(=O)(=O)c1ccc(NC=C2C(=O)Nc3ccc4ncsc4c32)cc1
inhibition: 26.7%

Compound: Cc1ccc2c(-c3ccnc(Nc4cccc(C(F)(F)F)c4)n3)c(-c3ccccc3)nn2n1
inhibition: 4.76%

Compound: CC(C)c1ccc(Nc2nccc(-c3cnn4ncccc34)n2)cc1
inhibition: 53.1%

Compound: O=C1Nc2ccc(-c3cccnc3)cc2C1=Cc1cc(Br)c(O)c(Br)c1
inhibition: 4.14%

Compound: NC(=O)c1sc(-n2cnc3ccccc32)cc1OCc1ccccc1Br
inhibition: 3.04%

Compound: O=S(=O)(CCOCc1ccc(-c2ccc3ncnc(Nc4ccc(OCc5cccc(F)c5)c(Cl)c4)c3c2)o1)c1ccccc1
inhibition: 8.7%
